# Target Or Test System: Aromatase (Homo sapiens)
# Sequence (P11511 whole entry): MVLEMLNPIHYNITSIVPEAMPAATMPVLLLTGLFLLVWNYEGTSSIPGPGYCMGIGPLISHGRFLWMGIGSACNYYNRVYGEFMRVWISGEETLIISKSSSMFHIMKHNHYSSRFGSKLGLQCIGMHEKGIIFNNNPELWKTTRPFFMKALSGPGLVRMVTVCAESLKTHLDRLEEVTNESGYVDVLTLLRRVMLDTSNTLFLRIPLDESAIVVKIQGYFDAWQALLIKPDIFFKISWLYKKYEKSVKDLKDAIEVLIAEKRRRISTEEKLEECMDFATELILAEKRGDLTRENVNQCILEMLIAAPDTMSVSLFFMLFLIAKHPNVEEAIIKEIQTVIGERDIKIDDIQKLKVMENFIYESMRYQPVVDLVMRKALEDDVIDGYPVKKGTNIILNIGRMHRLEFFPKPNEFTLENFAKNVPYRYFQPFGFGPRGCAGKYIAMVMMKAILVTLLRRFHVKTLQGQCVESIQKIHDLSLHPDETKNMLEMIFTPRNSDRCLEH
Measurement Type: IC50

[Q] For the compound `COc1cc2c(cc1OC)CN(S(=O)(=O)c1cccc(-n3cc(COc4ccc5ccccc5c4)nn3)c1)CC2` , report IC50.
[A] 70 nM
